- System: SK-MEL-5
- TEST_METHOD_NOTES: NCI tumour cell line growth inhibition, 48 h
Activity calls are given as the source filed them. Cut-off read from the data, not from the text of the source: active = GI50 up to about 1.1 µM and inactive = higher.
MEASURE: GI50

Q) Consider the compound NC1Cc2ccccc2OC1=O (stereo not drawn) . State its measured GI50.
A) > 100 µM (inactive)

Q) Consider the compound CC(C)NC(=O)CN1CCN(C2=CC(=O)c3c(O)ccc(O)c3C2=O)CC1 . State its measured GI50.
A) 2.58 µM (inactive)

Q) Consider the compound Clc1cccc(N/N=N/c2ccc(-c3nc4ccccc4s3)cc2)c1 . State its measured GI50.
A) 25.4 µM (inactive)

Q) Consider the compound COc1ccc(C2CC(C)(O)Oc3cc4c(cc32)OCO4)cc1 (stereo not drawn) . State its measured GI50.
A) 25.4 µM (inactive)

Q) Consider the compound CC(/C=C/NNC1=NN=C(c2ccccc2)C(c2ccccc2)N1)Sc1ccccc1N (stereo not drawn) . State its measured GI50.
A) 9.66 µM (inactive)

Q) Consider the compound O=C(NCO)NCOCn1c(=O)n(CO)c(=O)n(CO)c1=O . State its measured GI50.
A) 41.5 µM (inactive)

Q) Consider the compound COC(=O)N/N=C(\c1nc2ccc(Cl)cc2nc1O)C(O)c1ccc([N+](=O)[O-])cc1 (stereo not drawn) . State its measured GI50.
A) > 100 µM (inactive)

Q) Consider the compound COC(=O)c1ccc2cc(O)c(O)cc2c1 . State its measured GI50.
A) 22.1 µM (inactive)

Q) Consider the compound CN1c2ccccc2C2=C(c3ccccc3)CC[C@@H](C(=O)N3C4CC5CC[C@@]4(CS3(=O)=O)C5(C)C)[C@@H]21 (stereo partly drawn) . State its measured GI50.
A) > 100 µM (inactive)

Q) Consider the compound CN(C)CCCNC(=O)c1c(O)c2ccccc2n(C)c1=O . State its measured GI50.
A) 53.7 µM (inactive)

Q) Consider the compound O=Cc1ccc(-c2ccc(-c3ccc(C=O)s3)o2)s1 . State its measured GI50.
A) > 87.7 µM (inactive)

Q) Consider the compound CO/N=C1/C(n2[nH]c(=O)n(-c3ccccc3)c2=O)C2C=CC1n1c(=O)n(-c3ccccc3)c(=O)n12 (stereo not drawn) . State its measured GI50.
A) > 100 µM (inactive)

Q) Consider the compound O=C(O)c1nc2ccc(Cl)cc2[nH]c1=O . State its measured GI50.
A) > 100 µM (inactive)

Q) Consider the compound CCOC(=O)NC(NC1=NCCS1)(C(=O)OCC)C(F)(F)F (stereo not drawn) . State its measured GI50.
A) > 100 µM (inactive)

Q) Consider the compound O=C1C(Cl)=C(Cl)C(=O)N1C1C2CC3CC(C2)CC1C3 (stereo not drawn) . State its measured GI50.
A) > 100 µM (inactive)

Q) Consider the compound COc1ccc(-n2c3c(c4cc(O)ccc42)C(=O)c2ccccc2C3=O)cc1 . State its measured GI50.
A) 2.73 µM (inactive)

---

- Tested on: HCC 2998
- TEST_METHOD_NOTES: NCI tumour cell line growth inhibition, 48 h
Active and inactive are the calls of the source. No stated cut-off is given here; in the data, active = GI50 up to about 1.1 µM and inactive = higher.
Please reply with one of these outcomes: class 1 (active), class 0 (inactive)

Worked examples follow.
[
  {
    "COMPOUND": "O=C(NCO)NCOCn1c(=O)n(CO)c(=O)n(CO)c1=O",
    "CLASS_LABEL": "class 0"
  },
  {
    "COMPOUND": "c1ccc(CN2CCC3(CC2)SSC2(CCN(Cc4ccccc4)CC2)S3)cc1",
    "CLASS_LABEL": "class 0"
  },
  {
    "COMPOUND": "CC(C)OP(=O)(OC(C)C)/C(=N/Nc1ccc([N+](=O)[O-])cc1)NN",
    "CLASS_LABEL": "class 0"
  }
]

Q) Test call for this compound, please: COc1ccc(/C=C2/CSCC3=C2N=C(S)NC3c2ccc(OC)c(OC)c2OC)c(OC)c1OC (configuration not stated)
A) class 0

Q) Test call for this compound, please: O=C1C2C3C=CC(C2C(=O)N1CO)C1C2C(=O)N(CO)C(=O)C2C31 (configuration not stated)
A) class 0

Q) Test call for this compound, please: CNc1ccc(/C=C2\C=Cc3ccccc32)cc1
A) class 0

Q) Test call for this compound, please: O=C(/C=C/c1ccc(C(F)(F)F)cc1)c1c([O-])on[n+]1-c1ccccc1
A) class 0

Q) Test call for this compound, please: C=CCn1c2c(sc1=S)C(S)NC=N2 (configuration not stated)
A) class 0

Q) Test call for this compound, please: O=C1c2cc([N+](=O)[O-])cc3cc([N+](=O)[O-])cc(c23)C(=O)N1CCCNCCNCCCN1C(=O)c2cc([N+](=O)[O-])cc3cc([N+](=O)[O-])cc(c23)C1=O
A) class 1

---

- System: DMS-114
- TEST_METHOD_NOTES: NCI tumour cell line growth inhibition, 48 h
Calls of active or inactive are those of the source. No stated cut-off is given here; in the data, active = GI50 up to about 1.1 µM and inactive = higher.
Each entry below carries its reported GI50.

Examples with answers:
[
  {
    "COMPOUND": "CC1=CC2CC(C)C1(C)CCc1ccoc12 (stereo not drawn)",
    "GI50": "> 100 µM (inactive)"
  },
  {
    "COMPOUND": "CN(C)C(=O)N(CCCl)N=O",
    "GI50": "> 100 µM (inactive)"
  },
  {
    "COMPOUND": "Cc1ccc(NCC2(/N=C/c3ccccc3)OC(CO)C(O)C2O)cc1 (stereo not drawn)",
    "GI50": "40 µM (inactive)"
  }
]

Q) Consider the compound N#CCC(=O)N/N=C(\C(=O)Nc1ccc(Cl)c(Cl)c1)C1CN(c2ccccc2)N=C1N (stereo not drawn) . State its measured GI50.
A) > 100 µM (inactive)

Q) Consider the compound C1=C(c2ccccc2)SC(N2CCCCC2)S1 (stereo not drawn) . State its measured GI50.
A) 60.1 µM (inactive)

Q) Consider the compound CC1OC(=O)C2CC3CCCCC3C(/C=C/C3CCCC(C)N3C)C12 (stereo not drawn) . State its measured GI50.
A) > 100 µM (inactive)

Q) Consider the compound FC(F)(F)C1(Br)C(c2ccccc2)=C1c1ccccc1 . State its measured GI50.
A) 15.2 µM (inactive)

Q) Consider the compound BrC12C3C4C5C(C(C43)C13OCCO3)C52 (stereo not drawn) . State its measured GI50.
A) > 100 µM (inactive)

Q) Consider the compound O=C1C2C(C(=O)N1c1ccccc1)C1c3ccccc3C2C2C(=O)N(c3ccccc3)C(=O)C21 (stereo not drawn) . State its measured GI50.
A) 3.08 µM (inactive)

Q) Consider the compound COC(=O)C1=Cc2cc(OC)c(OC)c(OC)c2[C@H](c2cc(OC)c(OC)c(OC)c2)C1C(=O)OC (stereo partly drawn) . State its measured GI50.
A) > 100 µM (inactive)

Q) Consider the compound N#CC(C#N)SCc1ccccc1 . State its measured GI50.
A) 24.4 µM (inactive)

Q) Consider the compound CC1(C)Oc2ccccc2N2O[C@@H]3C(=O)N(c4ccccc4)C(=O)[C@@H]3C21c1ccccc1 (stereo partly drawn) . State its measured GI50.
A) 23.2 µM (inactive)

Q) Consider the compound O=C1NC(=S)NC(=O)C1=Cc1ccc2ccccc2n1 . State its measured GI50.
A) > 100 µM (inactive)

Q) Consider the compound CC1=NOC(=O)/C1=C/c1ccc([N+](=O)[O-])cc1 . State its measured GI50.
A) > 100 µM (inactive)

Q) Consider the compound O=c1[nH]c(S)nc2c1sc(=S)n2-c1ccccc1 . State its measured GI50.
A) > 100 µM (inactive)

Q) Consider the compound O=C(CCc1nnc2s/c(=C\c3ccccc3Cl)c(=O)n12)Nc1cc(Cl)ccc1Cl . State its measured GI50.
A) > 100 µM (inactive)

Q) Consider the compound O=S1(=O)C(=C(c2ccccc2)c2ccccc2)S(=O)(=O)c2ccccc21 . State its measured GI50.
A) 65.3 µM (inactive)

Q) Consider the compound Cc1c2c(cc3c(=O)ccn(CCN(C)C)c13)c(=O)ccn2CCN(C)C . State its measured GI50.
A) 16.3 µM (inactive)

Q) Consider the compound Cn1cc(C(=O)C2CCCCC2)ccc1=O . State its measured GI50.
A) > 100 µM (inactive)

Q) Consider the compound O=Cc1ccc(-c2ccc(-c3ccc(C=O)s3)o2)s1 . State its measured GI50.
A) > 84.1 µM (inactive)

Q) Consider the compound CC(=O)c1sc(Nc2nnc(-c3ccc(-c4nnc(Nc5nc(C)c(C(C)=O)s5)o4)cc3)o2)nc1C . State its measured GI50.
A) > 100 µM (inactive)

Q) Consider the compound O=[N+]([O-])c1nccn1COCCF . State its measured GI50.
A) > 100 µM (inactive)

Q) Consider the compound COc1ccc(/C(Cl)=C(\C=O)c2ccc(Cl)cc2)cc1 . State its measured GI50.
A) 4.15 µM (inactive)

---

- Test system: MDA-MB-231
- TEST_METHOD_NOTES: NCI tumour cell line growth inhibition, 48 h
Calls of active or inactive are those of the source. Cut-off read from the data, not from the text of the source: active = GI50 up to about 1.1 µM and inactive = higher.
MEASURE: GI50

Examples with answers:
[
  {
    "COMPOUND": "COc1ccc(/C=C2\\Sc3nnc(CNc4ccc(Cl)cc4)n3N=C2c2cc(F)c(Cl)cc2Cl)cc1OC",
    "RESULT": "> 100 µM (inactive)"
  },
  {
    "COMPOUND": "CC(C)Cn1cnnc1NS(=O)(=O)c1cc(C(=O)NN)c(Cl)cc1S",
    "RESULT": "> 10 µM (inactive)"
  },
  {
    "COMPOUND": "CC(=O)Nc1cc(Cl)cc(Cl)c1O",
    "RESULT": "> 100 µM (inactive)"
  },
  {
    "COMPOUND": "NS(=O)(=O)c1nnc(NS(=O)(=O)c2cccc3cccnc23)s1",
    "RESULT": "> 100 µM (inactive)"
  },
  {
    "COMPOUND": "CC(CCOc1c2ccoc2cc2oc(=O)ccc12)C1=CC(=O)C(C)(C)O1 (centres undefined)",
    "RESULT": "> 100 µM (inactive)"
  }
]

Q) Consider the compound Nc1cc(CO)cc(Nc2nc3ccc(Cl)cc3c3[nH]c4ccccc4c23)c1 . State its measured GI50.
A) 2.55 µM (inactive)

Q) Consider the compound COc1ccc(-c2cn3c(nc4ccccc43)c(/C=C/c3cccs3)n2)cc1 . State its measured GI50.
A) > 100 µM (inactive)

Q) Consider the compound NCc1ccc(-c2ccc(CN)s2)s1 . State its measured GI50.
A) > 100 µM (inactive)

Q) Consider the compound CN(C)CCNc1ccc([N+](=O)[O-])c2sc3ccccc3c(=O)c12 . State its measured GI50.
A) 1.99 µM (inactive)

Q) Consider the compound Cc1cn(CC(=S)NCCc2c[nH]c3ccccc23)c(=O)[nH]c1=O . State its measured GI50.
A) > 100 µM (inactive)

Q) Consider the compound COc1ccc(/C=C2/CSCC3=C2N=C(S)NC3c2ccc(OC)c(OC)c2OC)c(OC)c1OC (centres undefined) . State its measured GI50.
A) 17.7 µM (inactive)

Q) Consider the compound O=C(/C=C/c1ccc(Cl)cc1)Oc1ccc(C=C2CCC/C(=C\c3ccc(OC(=O)/C=C/c4ccc(Cl)cc4)cc3)C2=O)cc1 . State its measured GI50.
A) > 100 µM (inactive)
